Values of Ki for UniProt:P00915, collected from a number of published sources:
measured-endpoint: Ki (µM)

- molecule: "NS(=O)(=O)c1cccc(NC(=O)CN(CCN(CC(=O)O)CC(=O)O)CC(=O)O)c1"
  uom: "µM"
  assay-result: 10
- molecule: "COC(=O)c1ccc(/N=C/c2ccc(C(C)(C)C)cc2)cc1"
  uom: "µM"
  assay-result: 7.46
- molecule: "COC(=O)CC(NC(=O)Nc1cccc(S(N)(=O)=O)c1)C(=O)OC (stereo not drawn)"
  uom: "µM"
  assay-result: 8.38

###

Values of pKi for Carbonic anhydrase 1 (Homo sapiens, UniProt P00915), collected from a number of published sources:
pKi: −log10 of the molar value.
measured-endpoint: pKi

- compound: "C[C@H](CCC(=O)Nc1ccc(S(N)(=O)=O)cc1Cl)[C@H]1CC[C@H]2[C@@H]3CC[C@@H]4C[C@H](O)CC[C@]4(C)[C@H]3CC[C@]12C"
  subject-of-test: "Carbonic anhydrase 1 (Homo sapiens, UniProt P00915)"
  pKi: 6.14

a. NS(=O)(=O)c1ccc(/N=c2\scc(-c3cccs3)n2-c2ccccc2)cc1
b. NCC(=O)Nc1cc(Cl)c(S(N)(=O)=O)cc1S(N)(=O)=O
c. NS(=O)(=O)c1nc2ccc(OCCOC(=O)CNCCNCC(=O)O)cc2s1
Input line: Exam item: list the entries in increasing order of pKi. Labels, requested order.
Output line: a, b, c
(a: 5.04, b: 6.44, c: 7.37)

I. Nc1c(Cl)cc(S(N)(=O)=O)cc1Cl
II. NS(=O)(=O)c1ccc(C(=O)c2cccc(C(=O)O)n2)c(F)c1
Input line: I would appreciate it if you could say which entry, I or II , has the lower pKi value. Answer by quoting the chosen item's label.
Output line: I

I. NS(=O)(=O)Nc1ccc(I)cc1
II. CNCC(=O)NNc1ccc(S(N)(=O)=O)cc1
Input line: Which numeric pKi is bigger, that of I or that of II ? Answer by quoting the chosen item's label.
Output line: I
(I: 7.74, II: 4.66)

###

Values of Ki for Carbonic anhydrase 1 (Homo sapiens), collected from a number of published sources:

Answered examples (5):
- mol-smiles: "Cc1c2c(=O)oc3ccc([N+](=O)[O-])cc3c2nn1-c1ccccc1"
  assay-result: "> 10 µM"
- mol-smiles: "CCn1cc(S(N)(=O)=O)c2cc(NC(=O)c3cc(-c4ccccc4Cl)nc4ccccc34)ccc21"
  assay-result: "> 100 µM"
- mol-smiles: "Cc1nn(C)c2nnc(Nc3ccc(S(=O)(=O)N4CCCNCC4)cc3)nc12"
  assay-result: "> 50 µM"
- mol-smiles: "Nc1nc(-c2ccccc2O)cn2c(=O)n(-c3ccccc3)nc12"
  assay-result: "> 100 µM"
- mol-smiles: "COc1cc(/C=C/C(=O)OCCc2cccc(O)c2)ccc1O"
  assay-result: "> 50 µM"

Now, please, on to the next compound.
Item: S=c1ccc2ccccc2o1 | Ki: > 100 µM

###

pKi: −log10 of the molar value.
Values of pKi for Carbonic anhydrase 1 (Homo sapiens, UniProt P00915), collected from a number of published sources:
measured-endpoint: pKi

Answered examples (4):
- mol-smiles: "C[C@H](CCC(=O)NCc1ccc(S(N)(=O)=O)cc1)[C@H]1CC[C@H]2[C@@H]3CC[C@@H]4C[C@H](O)CC[C@]4(C)[C@H]3CC[C@]12C"
  subject-of-test: "Carbonic anhydrase 1 (Homo sapiens, UniProt P00915)"
  pKi: 6.04
- mol-smiles: "CNCC(=O)Nc1ccc(S(N)(=O)=O)cc1Cl"
  subject-of-test: "Carbonic anhydrase 1 (Homo sapiens, UniProt P00915)"
  pKi: 6.29
- mol-smiles: "N/C(=N\\S(=O)(=O)c1ccccc1SCc1ccccc1)NNc1nc(Cl)nc(NCc2ccc(S(N)(=O)=O)cc2)n1"
  subject-of-test: "Carbonic anhydrase 1 (Homo sapiens, UniProt P00915)"
  pKi: 6.53
- mol-smiles: "C/C(=N\\NC(N)=S)c1nnn(-c2ccc(S(N)(=O)=O)cc2)c1C"
  subject-of-test: "Carbonic anhydrase 1 (Homo sapiens, UniProt P00915)"
  pKi: 7.08

a. CC(=O)OC[C@H]1O[C@@H](NC(=S)Nc2ccc(S(N)(=O)=O)cc2)[C@H](OC(C)=O)[C@@H](OC(C)=O)[C@@H]1O[C@H]1O[C@H](COC(C)=O)[C@@H](OC(C)=O)[C@H](OC(C)=O)[C@H]1OC(C)=O
b. CCc1cc(-c2ccccc2)cc(CC)[n+]1CC(=O)Nc1ccc(S(=O)(=O)Nc2ccc(S(N)(=O)=O)cc2)cc1
Input line: Which numeric pKi is bigger, that of a or that of b ? Answer by quoting the chosen item's label.
Output line: b
